The reported numbers originate from paper PMC5764337.

# system: B/YAM-A395V virus NA (Influenza B virus, UniProt A0A1W5M8K9, A395V)
# settings: read-out: NA enzyme inhibition assay (mean IC50 ± SD)
recorded.metric: IC50 (pM)
Write the answer as a number in pM, unit excluded.

Incoming: Suppose we examine the molecule "CCC(CC)[C@H](NC(C)=O)[C@@H]1[C@H](O)[C@@H](C(=O)O)C[C@H]1N=C(N)N" ; what IC50 value has been reported?
Outgoing: 800

----------
# system: B/YAM-A395T virus NA (Influenza B virus, UniProt C0LT34, A395T)
# settings: read-out: NA enzyme inhibition assay (mean IC50 ± SD)
recorded.metric: IC50

Incoming: Suppose we examine the compound "CCC(CC)[C@H](NC(C)=O)[C@@H]1[C@H](O)[C@@H](C(=O)O)C[C@H]1N=C(N)N" ; what IC50 value has been reported?
Outgoing: 0.6 nM
